System: NCI-H23;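 note: cell viability assay measuring growth inhibition of NCI-H23 cells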
experiment: cells
Format: functional, cell-based, Homo sapiens
condition.notes: Homo sapiens, NCI-H23
Description: SANGER: Inhibition of human NCI-H23 cell growth in a cell viability assay.
pIC50: −log10 of the molar value.
quantity.name: pIC50

GET /value?item= C=C(c1ccc(C(=O)O)cc1)c1cc2c(cc1C)C(C)(C)CCC2(C)C [BEXAROTENE] &field=pIC50 returns < 5.10

GET /value?item= COc1cc2ncn(-c3cc(OCc4ccccc4C(F)(F)F)c(C(N)=O)s3)c2cc1OC [GW843682X] &field=pIC50 returns < 6.59

GET /value?item= CCN(CC)CCCCNc1ncc2cc(-c3cc(OC)cc(OC)c3)c(NC(=O)NC(C)(C)C)nc2n1 [PD-173074] &field=pIC50 returns < 5.70

* * *

For each entry below, report its pIC50 value.
Tested on: SK-MEL-24;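 note: growth inhibition read out by a cell viability assay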
experiment: cells
Type: functional, cell-based, Homo sapiens
condition.notes: Homo sapiens, SK-MEL-24
Description: SANGER: Inhibition of human SK-MEL-24 cell growth in a cell viability assay.
pIC50: −log10 of the molar value.

GET /value?item= Cc1cn(-c2cc(NC(=O)c3ccc(C)c(Nc4nccc(-c5cccnc5)n4)c3)cc(C(F)(F)F)c2)cn1 [NILOTINIB] &field=pIC50 returns < 5.70

GET /value?item= CC1(C)CNc2cc(NC(=O)c3cccnc3NCc3ccncc3)ccc21 [MOTESANIB] &field=pIC50 returns < 5.70

GET /value?item= CN(C)C(=N)NC(=N)N [METFORMIN] &field=pIC50 returns < 1.70

GET /value?item= COc1cccc2c1C(=O)c1c(O)c3c(c(O)c1C2=O)C[C@@](O)(C(=O)CO)C[C@@H]3O[C@H]1C[C@H](N)[C@H](O)[C@H](C)O1 [DOXORUBICIN] &field=pIC50 returns 6.04

GET /value?item= C=C(c1ccc(C(=O)O)cc1)c1cc2c(cc1C)C(C)(C)CCC2(C)C [BEXAROTENE] &field=pIC50 returns < 5.10

GET /value?item= CC(C)CCN1c2nc(Nc3cc(F)c(O)c(F)c3)ncc2N(C)C(=O)C1C (stereo not drawn) &field=pIC50 returns < 5.30

GET /value?item= `Cc1cc([N+](=O)[O-])ccc1NS(=O)(=O)c1cc(Cl)ccc1Cl` &field=pIC50 returns 5.20

GET /value?item= `COc1cc2c(Nc3ccc(NC(=O)c4ccccc4)cc3)ncnc2cc1OCCCN1CCOCC1` &field=pIC50 returns < 5.40

* * *

Test system: A101D;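 note: growth inhibition of the cell line, measured with a viability assay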
experiment: cells
Format: functional, cell-based, Homo sapiens
condition.notes: Homo sapiens, A101D
Description: SANGER: Inhibition of human A101D cell growth in a cell viability assay.
quantity.name: IC50 (µM)
Just the number please, in µM, no unit attached.

GET /value?item= `O=C(O)c1ccc(-c2c[nH]c3ncc(-c4ccccc4)cc23)cc1C1CCCC1` &field=IC50 returns 9.27

GET /value?item= `Cc1ccc(-c2c(C(=O)CCl)n(CCCO)c3ncnc(N)c23)cc1` &field=IC50 returns 3.83

GET /value?item= `Cc1cc([N+](=O)[O-])ccc1NS(=O)(=O)c1cc(Cl)ccc1Cl` &field=IC50 returns 4.55

* * *

Tested on: SF-295;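 note: growth inhibition of SF-295 cells, read out with a cell viability assay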
experiment: cells
Assay type: functional, cell-based, Homo sapiens
condition.notes: Homo sapiens, SF-295
Description: SANGER: Inhibition of human SF295 cell growth in a cell viability assay.
pIC50: −log10 of the molar value.
For each entry below, report its pIC50 value.

GET /value?item= `Oc1ccc2ccccc2c1SSc1c(O)ccc2ccccc12` &field=pIC50 returns < 4.49

GET /value?item= CC(C)CCN1c2nc(Nc3cc(F)c(O)c(F)c3)ncc2N(C)C(=O)C1C (configuration not stated) &field=pIC50 returns < 5.30

GET /value?item= COc1cccc2c1C(=O)c1c(O)c3c(c(O)c1C2=O)C[C@@](O)(C(=O)CO)C[C@@H]3O[C@H]1C[C@H](N)[C@H](O)[C@H](C)O1 [DOXORUBICIN] &field=pIC50 returns 7.31

GET /value?item= Cn1cnc2c(F)c(Nc3ccc(Br)cc3Cl)c(C(=O)NOCCO)cc21 [SELUMETINIB] &field=pIC50 returns < 5.40

GET /value?item= C=C(c1ccc(C(=O)O)cc1)c1cc2c(cc1C)C(C)(C)CCC2(C)C [BEXAROTENE] &field=pIC50 returns 5.29

GET /value?item= CS(=O)(=O)c1ccc(C(=O)Nc2ccc(Cl)c(-c3ccccn3)c2)c(Cl)c1 [VISMODEGIB] &field=pIC50 returns < 5.00

GET /value?item= `COc1cc2c(Nc3ccc(NC(=O)c4ccccc4)cc3)ncnc2cc1OCCCN1CCOCC1` &field=pIC50 returns < 5.40

* * *

For each entry below, report its IC50 value.
System: NB69;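 note: growth inhibition of NB69 cells, determined by a cell viability assay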
experiment: cells
Assay type: functional, cell-based, Homo sapiens
condition.notes: Homo sapiens, NB69
Description: SANGER: Inhibition of human NB69 cell growth in a cell viability assay.
Just the number please, in µM, no unit attached.

GET /value?item= `Oc1ccc2ccccc2c1SSc1c(O)ccc2ccccc12` &field=IC50 returns 6.76

GET /value?item= `CO[C@H]1C[C@@H]2CC[C@@H](C)[C@@](O)(O2)C(=O)C(=O)N2CCCC[C@H]2C(=O)O[C@H]([C@H](C)C[C@@H]2CC[C@@H](OC(=O)C(C)(CO)CO)[C@H](OC)C2)CC(=O)[C@H](C)/C=C(\C)[C@@H](O)[C@@H](OC)C(=O)[C@H](C)C[C@H](C)/C=C/C=C/C=C/1C` &field=IC50 returns 0.00946

GET /value?item= `COc1cc(N2CCN(C)CC2)ccc1Nc1ncc2c(n1)N(C)c1ccccc1C(=O)N2C` &field=IC50 returns 7.85

* * *

Tested on: no-10
experiment: cells
Assay type: functional, cell-based, Homo sapiens
Description: SANGER: Inhibition of human no-10 cell growth in a cell viability assay.
quantity.name: pIC50
In simple prose, pIC50 is minus the logarithm base ten of a concentration in moles per litre.

`CISPLATIN` tested on no-10 gave pIC50: 4.11

* * *

System: SiHa;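 note: Viability-based readout of growth inhibition in SiHa cells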
experiment: cells
Assay type: functional, cell-based, Homo sapiens
condition.notes: Homo sapiens, SiHa
Description: SANGER: Inhibition of human SiHa cell growth in a cell viability assay.
pIC50: −log10 of the molar value.
quantity.name: pIC50

GET /value?item= `Cc1cn(-c2cc(NC(=O)c3ccc(C)c(Nc4nccc(-c5cccnc5)n4)c3)cc(C(F)(F)F)c2)cn1` &field=pIC50 returns < 5.70

GET /value?item= `CC(C)c1ccccc1Cc1cc(C(=O)Nc2ccc(S(=O)(=O)c3ccccc3C(C)(C)C)cc2)c(O)c(O)c1O` &field=pIC50 returns 6.58

GET /value?item= CC(C)CCN1c2nc(Nc3cc(F)c(O)c(F)c3)ncc2N(C)C(=O)C1C (stereo unspecified) &field=pIC50 returns < 5.30

GET /value?item= `CCN(CC)CCCCNc1ncc2cc(-c3cc(OC)cc(OC)c3)c(NC(=O)NC(C)(C)C)nc2n1` &field=pIC50 returns < 5.70

GET /value?item= `C=C(c1ccc(C(=O)O)cc1)c1cc2c(cc1C)C(C)(C)CCC2(C)C` &field=pIC50 returns < 5.10

GET /value?item= `CO[C@H]1C[C@@H]2CC[C@@H](C)[C@@](O)(O2)C(=O)C(=O)N2CCCC[C@H]2C(=O)O[C@H]([C@H](C)C[C@@H]2CC[C@@H](OC(=O)C(C)(CO)CO)[C@H](OC)C2)CC(=O)[C@H](C)/C=C(\C)[C@@H](O)[C@@H](OC)C(=O)[C@H](C)C[C@H](C)/C=C/C=C/C=C/1C` &field=pIC50 returns < 6.70

* * *

For each entry below, report its IC50 value.
System: HCE-4;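 note: cell viability assay measuring inhibition of growth in the human HCE-4 cell line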
experiment: cells
Format: functional, cell-based, Homo sapiens
condition.notes: Homo sapiens, HCE-4
Description: SANGER: Inhibition of human HCE-4 cell growth in a cell viability assay.
Counter-ions that a name gives are not always drawn.

GET /value?item= `Nc1ccn([C@@H]2O[C@H](CO)[C@@H](O)C2(F)F)c(=O)n1` &field=IC50 returns < 4 nM

GET /value?item= `N#Cc1c(O)c2c(-c3ccc(-c4ccccc4O)cc3)csc2[nH]c1=O` &field=IC50 returns > 1020 nM

GET /value?item= `Cc1cn(-c2cc(NC(=O)c3ccc(C)c(Nc4nccc(-c5cccnc5)n4)c3)cc(C(F)(F)F)c2)cn1` &field=IC50 returns > 2000 nM

GET /value?item= COC1=CC(c2cc3ccccc3[nH]2)=N/C1=C\c1[nH]c(C)cc1C [OBATOCLAX MESYLATE] &field=IC50 returns 203 nM

GET /value?item= `Cc1ccc(-c2c(C(=O)CCl)n(CCCO)c3ncnc(N)c23)cc1` &field=IC50 returns > 4000 nM

GET /value?item= `C=C(c1ccc(C(=O)O)cc1)c1cc2c(cc1C)C(C)(C)CCC2(C)C` &field=IC50 returns > 8000 nM

* * *

Tested on: D-263MG
experiment: cells
Format: functional, cell-based, Homo sapiens
condition.notes: Homo sapiens, D-263MG
Description: SANGER: Inhibition of human D-263MG cell growth in a cell viability assay.
pIC50: −log10 of the molar value.
quantity.name: pIC50

GET /value?item= CCN(CC)CCCCNc1ncc2cc(-c3cc(OC)cc(OC)c3)c(NC(=O)NC(C)(C)C)nc2n1 [PD-173074] &field=pIC50 returns 6.15

GET /value?item= N[C@@H](CSC(c1ccccc1)(c1ccccc1)c1ccccc1)C(=O)O [S-TRITYL-L-CYSTEINE] &field=pIC50 returns < 5.29

GET /value?item= `N#Cc1c(O)c2c(-c3ccc(-c4ccccc4O)cc3)csc2[nH]c1=O` &field=pIC50 returns < 5.99

GET /value?item= C#Cc1cccc(Nc2ncnc3cc(OCCOC)c(OCCOC)cc23)c1 [ERLOTINIB] &field=pIC50 returns < 5.70

GET /value?item= `OCCCNc1cc(-c2ccnc(Nc3cccc(Cl)c3)n2)ccn1` &field=pIC50 returns < 6.59

GET /value?item= `Oc1ccc2ccccc2c1SSc1c(O)ccc2ccccc12` &field=pIC50 returns < 4.49

GET /value?item= `Cc1cc([N+](=O)[O-])ccc1NS(=O)(=O)c1cc(Cl)ccc1Cl` &field=pIC50 returns 4.97
